Test: NCI Yeast Anticancer Drug Screen. Data for the sgs1 mgt1 strain (AID 161)
Conditions: S. cerevisiae sgs1 mgt1 strain, at 50.0 µM (retest, dose inferred, filed as 5.0)
This is part of a sample that, as a whole, favours compounds with a hit. Of some 79,000 tested, about 15% had one in any assay. The source made the active and inactive calls. No stated cut-off is given here; in the data, active means growth inhibition above about 70%; inactive means the rest.
Pick from active, inactive when you respond.

Req: Give the logged outcome of this assay for the following molecule: CC(=O)NC1=C(Nc2ccc(-c3ccc(NC4=C(NC(C)=O)C(=O)c5ccccc5C4=O)cc3)cc2)C(=O)c2ccccc2C1=O
Resp: active

Req: Give the logged outcome of this assay for the following molecule: Cc1c2cc[n+](C)cc2c(COC2OC(CO)C(O)C2O)c2c3ccccc3n(C)c12 (stereo unspecified)
Resp: inactive

Req: Give the logged outcome of this assay for the following molecule: COC(=O)c1nnc(C(=O)OC)c2c1[nH]c1ccccc12
Resp: inactive

Req: Give the logged outcome of this assay for the following molecule: COc1ccc(/C=C/C(C(=O)O)C(=O)O)cc1
Resp: inactive

Req: Give the logged outcome of this assay for the following molecule: C[C@]12CC[C@H](O)CC1=CC[C@@H]1C2CC[C@]2(C)C(=O)N(N)C(=O)CC12 (stereo partly specified)
Resp: active

Req: Give the logged outcome of this assay for the following molecule: CCCCCCCCCCCCCCCCN
Resp: active

Req: Give the logged outcome of this assay for the following molecule: O=C1CSC(=S)N1Cc1ccncc1
Resp: inactive

Req: Give the logged outcome of this assay for the following molecule: Oc1ccc(C(=C(Br)c2ccccc2)c2ccc(O)cc2)cc1
Resp: active

Req: Give the logged outcome of this assay for the following molecule: O=C(O)c1ccc2c(c1)CCCC2
Resp: inactive

Req: Give the logged outcome of this assay for the following molecule: CC12C(=O)N(CC(=O)O)C(=O)C1(C)C1c3ccccc3C2c2ccc3ccccc3c21 (stereo unspecified)
Resp: active

Req: Give the logged outcome of this assay for the following molecule: O=[N+]([O-])C1C2C=CC(C2)[C@H]1c1ccc(Cl)cc1Cl (stereo partly specified)
Resp: active

Values compiled from PubChem BioAssay (NCI).
